- Test system: ACHN
- Protocol Text: NCI tumour cell line growth inhibition, 48 h
Calls of active or inactive are those of the source. Cut-off read from the data, not from the text of the source: active = GI50 up to about 1.1 µM and inactive = higher.
In this exercise, the only acceptable responses are 1 = active, -1 = inactive

CC1CC(C)[C@H](O)C([C@H](O)CC2CC(=O)N(C)C(=O)C2)C1 (some centres not stated): -1

Exercise: Query: recorded result category for CCCCCC(=O)N[C@@H](c1ccccc1)C(O)C(=O)OC1C[C@@]2(O)C(OC(=O)c3ccccc3)C3[C@](C)(C(=O)[C@H](O)C(=C1C)C2(C)C)C(OC1OCC(O)C(O)C1O)C[C@H]1OC[C@@]31OC(C)=O (some centres not stated) in this test
Key: -1

Exercise: Can you handle `COc1ccc(N/N=C/C2=CC(C)(C)C(C#N)(C#N)C(O)=C2C#N)cc1` next?
Key: -1

Exercise: Can you handle COc1ccc(C2Oc3ccc(O)cc3[C@@H]2C)cc1OC (some centres not stated) next?
Key: -1

Exercise: Can you handle CC1CCCCNC1=S (configuration not stated) next?
Key: -1

Exercise: Can you handle COc1ccc2c(c1)C=C([N+](=O)[O-])C(C1OC(C)(C)OC1C1COC(C)(C)O1)O2 (configuration not stated) next?
Key: -1

###

- Test system: HOP-92
- Protocol Text: NCI tumour cell line growth inhibition, 48 h
Activity calls are given as the source filed them. Cut-off read from the data, not from the text of the source: active = GI50 up to about 1.1 µM and inactive = higher.
The compounds listed here are annotated with their GI50.

# count of solved cases: 2
O=C(/C=C/c1ccccc1)c1ccccc1 [CHALCONE]: > 10 µM (inactive)
N#Cc1cnc(-n2[nH]c3c(c2=O)CCCC3)[nH]c1=O: 35.2 µM (inactive)

Exercise: Look up GI50 for this compound: `O=c1[nH]c(-c2ccc([N+](=O)[O-])cc2)nc2ccc(Cl)cc12`
Key: 26.8 µM (inactive)

Exercise: Can you handle `Cc1cc(O)cc(O)c1/N=N/c1ccc([N+](=O)[O-])cc1` next?
Key: 2.39 µM (inactive)

Exercise: Can you handle `Cc1nn(-c2nc3ccccc3s2)c2c1C(=O)c1ccccc1-2` next?
Key: 89.3 µM (inactive)

Exercise: Can you handle CC(C)c1c(O)ccc2c1CCC1C(C)(C)CCCC21C (stereo not given) next?
Key: 18.6 µM (inactive)

Exercise: Can you handle `O=[N+]([O-])c1ccc(-c2ccc(-c3csc(Nc4ccccn4)n3)o2)cc1` next?
Key: > 100 µM (inactive)

###

- System: SNB-75
- Protocol Text: NCI tumour cell line growth inhibition, 48 h
The source made the active and inactive calls. No stated cut-off is given here; in the data, active = GI50 up to about 1.1 µM and inactive = higher.
Measure: GI50

# count of solved cases: 5
CCCCCCCCCCCCCCCCCCOCC(COP(=O)([O-])OCC[N+](C)(C)C)OC (stereo not given): 8.75 µM (inactive)
COc1ccc2c3c([nH]c2c1)[C@H]1C[C@H]2[C@H](C[C@@H](O)[C@H](OC)[C@H]2C(=O)O)CN1CC3: > 100 µM (inactive)
CC(=O)Oc1cc(OC(C)=O)c2c(C)cc(=O)oc2c1: 66.8 µM (inactive)
Cn1cnc2c1c(=O)n(CCNCCO)c(=O)n2C: > 100 µM (inactive)
CCOC(=O)C1(C/C=C\CBr)CCCCCCCCCCC1=O (stereo not given): 12.4 µM (inactive)

Exercise: Look up GI50 for this molecule: COc1ccc(/C(CC2OC(=O)c3ccccc32)=N\NC(=O)C[N+](C)(C)C)cc1 (stereo not given)
Key: 27.7 µM (inactive)

Exercise: Can you handle `O=C(/C=C/c1ccccc1)c1ccccc1` next?
Key: > 10 µM (inactive)

Exercise: Can you handle `CC1(C)CC(=O)C(=CNC(=O)c2ccncc2)C(=O)C1` next?
Key: > 100 µM (inactive)

Exercise: Can you handle `O=C1C=CC[C@H](/C=C/C[C@@H](O)C[C@H](O)/C=C/c2ccccc2)O1` next?
Key: 13.6 µM (inactive)

Exercise: Can you handle O=S(=O)(c1ccccc1)C1CN2OC1(S(=O)(=O)c1ccccc1)CC2c1ccc(Br)cc1 (stereo not given) next?
Key: 5.21 µM (inactive)
